tested-system: Voltage-dependent L-type calcium channel subunit alpha-1C (Rattus norvegicus, UniProt P22002); further: assay procedure not described here
Sequence (P22002 whole entry): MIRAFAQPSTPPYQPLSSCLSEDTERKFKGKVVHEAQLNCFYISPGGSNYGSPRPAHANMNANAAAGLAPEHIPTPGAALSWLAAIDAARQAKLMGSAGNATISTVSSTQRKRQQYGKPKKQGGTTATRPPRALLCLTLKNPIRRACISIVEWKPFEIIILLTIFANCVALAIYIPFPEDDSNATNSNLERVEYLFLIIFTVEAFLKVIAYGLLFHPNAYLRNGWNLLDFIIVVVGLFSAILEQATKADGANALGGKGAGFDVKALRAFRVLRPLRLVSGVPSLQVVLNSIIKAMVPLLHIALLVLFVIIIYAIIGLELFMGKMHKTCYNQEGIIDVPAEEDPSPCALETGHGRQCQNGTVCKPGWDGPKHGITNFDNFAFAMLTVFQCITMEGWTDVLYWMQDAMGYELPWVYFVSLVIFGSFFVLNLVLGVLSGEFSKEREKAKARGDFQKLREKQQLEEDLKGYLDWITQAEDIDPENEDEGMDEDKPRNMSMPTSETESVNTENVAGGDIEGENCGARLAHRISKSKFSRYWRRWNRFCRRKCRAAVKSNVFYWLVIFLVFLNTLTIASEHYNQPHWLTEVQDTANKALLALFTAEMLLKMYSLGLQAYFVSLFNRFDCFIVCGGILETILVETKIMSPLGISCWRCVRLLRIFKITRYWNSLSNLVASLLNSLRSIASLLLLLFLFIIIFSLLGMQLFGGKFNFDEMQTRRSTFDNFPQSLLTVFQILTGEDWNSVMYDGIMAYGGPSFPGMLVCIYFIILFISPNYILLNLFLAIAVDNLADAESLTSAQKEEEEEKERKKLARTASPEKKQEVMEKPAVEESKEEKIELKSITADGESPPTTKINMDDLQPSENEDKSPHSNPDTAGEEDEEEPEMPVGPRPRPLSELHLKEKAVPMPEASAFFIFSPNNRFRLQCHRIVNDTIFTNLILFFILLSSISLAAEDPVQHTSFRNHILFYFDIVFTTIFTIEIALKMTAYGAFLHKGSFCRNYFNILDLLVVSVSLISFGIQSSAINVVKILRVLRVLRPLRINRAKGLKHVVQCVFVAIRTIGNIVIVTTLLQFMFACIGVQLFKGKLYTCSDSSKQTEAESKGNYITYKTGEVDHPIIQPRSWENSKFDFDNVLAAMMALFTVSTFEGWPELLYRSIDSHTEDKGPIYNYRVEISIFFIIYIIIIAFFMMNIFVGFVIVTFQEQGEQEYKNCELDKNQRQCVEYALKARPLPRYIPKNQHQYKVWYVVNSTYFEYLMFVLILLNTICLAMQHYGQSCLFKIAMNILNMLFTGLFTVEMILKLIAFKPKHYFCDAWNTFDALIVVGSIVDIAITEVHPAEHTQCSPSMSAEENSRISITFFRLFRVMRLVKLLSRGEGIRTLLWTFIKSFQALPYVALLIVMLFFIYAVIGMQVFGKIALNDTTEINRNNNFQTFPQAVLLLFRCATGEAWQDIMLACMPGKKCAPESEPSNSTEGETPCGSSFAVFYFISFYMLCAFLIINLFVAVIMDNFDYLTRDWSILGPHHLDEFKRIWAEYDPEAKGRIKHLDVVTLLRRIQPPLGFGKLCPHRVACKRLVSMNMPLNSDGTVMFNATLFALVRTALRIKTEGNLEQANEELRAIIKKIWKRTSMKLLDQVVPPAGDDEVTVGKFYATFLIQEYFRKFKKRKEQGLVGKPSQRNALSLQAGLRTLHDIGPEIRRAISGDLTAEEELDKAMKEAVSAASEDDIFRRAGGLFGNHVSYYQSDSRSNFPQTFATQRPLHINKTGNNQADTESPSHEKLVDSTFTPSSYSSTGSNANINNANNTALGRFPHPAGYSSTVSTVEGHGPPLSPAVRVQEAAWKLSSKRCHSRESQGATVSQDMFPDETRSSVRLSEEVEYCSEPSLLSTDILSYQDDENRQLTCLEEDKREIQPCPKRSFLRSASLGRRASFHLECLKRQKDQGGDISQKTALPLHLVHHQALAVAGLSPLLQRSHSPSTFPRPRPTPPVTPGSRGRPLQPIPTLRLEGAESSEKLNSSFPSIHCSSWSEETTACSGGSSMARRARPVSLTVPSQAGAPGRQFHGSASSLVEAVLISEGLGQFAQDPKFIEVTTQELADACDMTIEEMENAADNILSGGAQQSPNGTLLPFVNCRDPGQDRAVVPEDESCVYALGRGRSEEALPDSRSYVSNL
Assay type: functional
endpoint-label: AC50

Solved entries:
molecule	AC50
C#CCOc1ccc(N)cc1C(=O)NCCCC [PARSALMIDE]	> 30 µM
C=CC[C@@H]1/C=C(\C)C[C@H](C)C[C@H](OC)[C@H]2O[C@@](O)(C(=O)C(=O)N3CCCC[C@H]3C(=O)O[C@H](/C(C)=C/[C@@H]3CC[C@@H](O)[C@H](OC)C3)[C@H](C)[C@@H](O)CC1=O)[C@H](C)C[C@@H]2OC [TACROLIMUS ANHYDROUS]	> 10 µM
Clc1ccc2c(N3CCN(CCCN4CCN(c5ccnc6cc(Cl)ccc56)CC4)CC3)ccnc2c1 [PIPERAQUINE]	> 30 µM
Cc1cccc(N2CC(CO)OC2=O)c1 (configuration not stated) [TOLOXATONE]	> 30 µM
CCC(=O)O[C@H]1CC[C@H]2[C@@H]3CCC4=CC(=O)CC[C@]4(C)[C@H]3CC[C@]12C [TESTOSTERONE PROPIONATE]	> 10 µM

Record CCCCC(=O)O[C@]1(C(=O)CO)[C@@H](C)C[C@H]2[C@@H]3CCC4=CC(=O)C=C[C@]4(C)[C@@]3(F)[C@@H](O)C[C@@]21C [BETAMETHASONE VALERATE] , field AC50: > 10 µM

GET /value?item= CCCC(CCC)C(N)=O [VALPROMIDE] &field=AC50 returns > 10 µM
